# target of assay: EBP (Mus musculus)
# Construct: active EBP was obtained from mouse microsomes; from tissue
# Sequence (P70245 whole entry): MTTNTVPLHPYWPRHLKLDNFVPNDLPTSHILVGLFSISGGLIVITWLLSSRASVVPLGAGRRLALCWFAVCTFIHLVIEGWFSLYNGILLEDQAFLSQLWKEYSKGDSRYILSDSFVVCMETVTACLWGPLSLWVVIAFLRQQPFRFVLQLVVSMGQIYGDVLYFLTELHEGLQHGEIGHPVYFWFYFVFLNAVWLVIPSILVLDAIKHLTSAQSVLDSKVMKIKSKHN
# experiment summary: EBP enzymatic assay (GC/MS)
# Format: biochemical
# condition set: small molecules 10 μM, zymostenol 25 μM, 2 h

input smiles	inhibition of EBP enzymatic activity
CN1[C@@H]2CC[C@H]1C[C@@H](OC(c1ccccc1)c1ccccc1)C2	clear inhibition
CC/C(=C(\c1ccccc1)c1ccc(OCCN(C)C)cc1)c1ccccc1	clear inhibition
COc1ccc(S(=O)(=O)N2CCC(N3CCC(C)CC3)CC2)cc1	clear inhibition

====

Protein target, amino acids: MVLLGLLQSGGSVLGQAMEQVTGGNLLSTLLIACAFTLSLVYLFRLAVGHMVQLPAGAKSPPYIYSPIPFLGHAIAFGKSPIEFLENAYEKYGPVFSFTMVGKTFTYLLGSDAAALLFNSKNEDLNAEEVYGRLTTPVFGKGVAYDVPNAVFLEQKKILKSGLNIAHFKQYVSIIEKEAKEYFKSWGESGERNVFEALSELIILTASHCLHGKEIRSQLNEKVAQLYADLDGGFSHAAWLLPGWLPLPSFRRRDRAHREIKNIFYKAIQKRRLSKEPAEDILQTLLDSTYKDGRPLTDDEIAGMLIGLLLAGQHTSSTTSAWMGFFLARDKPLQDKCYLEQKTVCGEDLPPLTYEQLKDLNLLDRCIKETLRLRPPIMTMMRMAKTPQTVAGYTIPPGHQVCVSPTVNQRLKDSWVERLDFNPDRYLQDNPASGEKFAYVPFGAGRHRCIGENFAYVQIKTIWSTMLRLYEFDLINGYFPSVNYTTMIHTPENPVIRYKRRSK
pIC50: −log10 of the molar value.
metric: pIC50

Here's what some known entries look like.
compound	pIC50
Clc1ccc(COC(Cn2ccnc2)c2ccc(Cl)cc2Cl)c(Cl)c1 (stereo not drawn)	6.15 to 6.52
Clc1ccccc1C(c1ccccc1)(c1ccccc1)n1ccnc1	6.15 to 6.52

Query :: Requested read-out: pIC50. Entry: CC(=O)N1CCN(c2ccc(OCC3COC(Cn4ccnc4)(c4ccc(Cl)cc4Cl)O3)cc2)CC1 (stereo not drawn)
Result :: 6.15 to 6.52
